B1: scFv; the commonest letter at each place (parent)
chain 1: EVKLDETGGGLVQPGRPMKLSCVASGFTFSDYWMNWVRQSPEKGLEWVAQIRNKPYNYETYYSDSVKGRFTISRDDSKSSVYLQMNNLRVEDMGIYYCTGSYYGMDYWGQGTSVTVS
chain 2: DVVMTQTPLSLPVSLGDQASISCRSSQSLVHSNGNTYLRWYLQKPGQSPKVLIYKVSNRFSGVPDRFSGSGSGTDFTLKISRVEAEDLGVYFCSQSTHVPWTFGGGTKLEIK

# Variants of: B1
# ASSAY_NAME: yeast surface expression (ratio to wild type); higher = more expressed
# EXPERIMENTAL_SETUP: format: scFv 4-4-20, heavy + light
RESULT_TYPE: yeast surface expression
// return a plain number; no unit text

Consider the worked cases shown below.
chain 1 F29R V37N: 0.445
chain 1 M34E: 0.617
chain 1 D106N G109K: 0.277
chain 1 S101C M105Y Y107T: 0.488

Endpoint output: yeast surface expression of chain 1 S101V . Value?
0.496

Query: yeast surface expression; subject: chain 1 D106K G109L
0.324

Find the recorded yeast surface expression belonging to chain 1 Y32K V37S and report it.
0.852

Endpoint output: yeast surface expression of chain 1 S30R . Value?
0.995

Reported yeast surface expression, variant chain 1 Y107K : ____
0.637

Entry under review: chain 1 S30P N35V . Reported yeast surface expression?
0.636

If you can, please state the reported yeast surface expression value of chain 1 Y102S M105K .
1.02

Give its yeast surface expression value. Item: chain 1 Y102K Y103M
1.08

Suppose we examine the variant chain 1 Y102F G104H ; what yeast surface expression value has been reported?
0.927

Suppose we examine the variant chain 1 Y102V Y107F ; what yeast surface expression value has been reported?
0.877

Item under review: chain 1 W33C M34G N35E . Reported yeast surface expression?
1.65

Numbers sourced from the FLAb antibody collection (doi:10.7554/elife.23156).
